- target: hGPR65-SmBiT (Homo sapiens)
- Construct: expressed in transfected cells; host or cells: Expi293F (Gibco), transient transfection
- Sequence (Q8IYL9 whole entry): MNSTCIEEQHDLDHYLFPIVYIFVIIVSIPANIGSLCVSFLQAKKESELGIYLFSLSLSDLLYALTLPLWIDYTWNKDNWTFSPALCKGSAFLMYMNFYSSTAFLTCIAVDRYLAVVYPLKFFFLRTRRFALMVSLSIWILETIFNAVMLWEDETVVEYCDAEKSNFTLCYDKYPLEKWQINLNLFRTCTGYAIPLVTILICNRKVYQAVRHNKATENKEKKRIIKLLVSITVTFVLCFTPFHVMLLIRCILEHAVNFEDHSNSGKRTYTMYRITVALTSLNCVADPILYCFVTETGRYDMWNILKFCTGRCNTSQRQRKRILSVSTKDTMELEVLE
- method summary: Nano-BiT target engagement, LgBiT-mGs recruitment to hGPR65-SmBiT in Expi293F cells
- Format: cell-based
- condition: 10 μM

cpd smiles	mGs recruitment / engagement of hGPR65
Cc1ccc(NC(=O)c2cnn3c(O)cc(-c4ccc(COC(C)C)cc4)nc23)c(F)c1	showed engagement
Cc1ccc(NC(=O)c2cnn3c(O)cc(-c4ccc(COC(C)C)cc4)nc23)nc1	showed engagement
Cc1ccc(NC(=O)c2cnn3c(O)cc(-c4ccc(COC(C)C)c(Cl)c4)nc23)cc1	showed engagement
